Ref: patent US10487080B2

Molecular target: αvβ8 (Homo sapiens, UniProt P06756+P26012)
Construct: expressed in transfected cells; host or cells: K562-αvβ8
Sequence (P06756 31-889 limits assumed): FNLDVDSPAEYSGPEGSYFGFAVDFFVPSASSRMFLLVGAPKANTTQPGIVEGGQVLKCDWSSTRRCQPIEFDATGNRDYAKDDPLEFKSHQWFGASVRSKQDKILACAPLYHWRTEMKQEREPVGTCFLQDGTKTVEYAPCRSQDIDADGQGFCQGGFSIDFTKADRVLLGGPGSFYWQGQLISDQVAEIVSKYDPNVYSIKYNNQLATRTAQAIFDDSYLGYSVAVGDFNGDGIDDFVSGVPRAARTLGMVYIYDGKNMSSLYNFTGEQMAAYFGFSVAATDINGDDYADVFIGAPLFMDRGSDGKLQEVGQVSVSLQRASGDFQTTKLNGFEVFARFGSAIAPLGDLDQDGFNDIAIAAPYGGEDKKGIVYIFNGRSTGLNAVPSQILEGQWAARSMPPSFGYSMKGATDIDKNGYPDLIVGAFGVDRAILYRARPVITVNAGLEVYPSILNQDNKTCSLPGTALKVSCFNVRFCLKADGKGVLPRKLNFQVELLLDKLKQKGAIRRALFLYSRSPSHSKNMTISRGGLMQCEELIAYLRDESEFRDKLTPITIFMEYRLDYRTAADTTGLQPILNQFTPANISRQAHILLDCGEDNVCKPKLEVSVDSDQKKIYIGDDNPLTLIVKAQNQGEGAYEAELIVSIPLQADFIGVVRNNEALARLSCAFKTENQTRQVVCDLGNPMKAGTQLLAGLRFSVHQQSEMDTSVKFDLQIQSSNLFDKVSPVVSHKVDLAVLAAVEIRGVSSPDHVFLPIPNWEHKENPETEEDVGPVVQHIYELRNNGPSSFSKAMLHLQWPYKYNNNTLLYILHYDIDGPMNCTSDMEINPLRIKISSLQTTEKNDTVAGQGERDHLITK
Sequence (P06756 891-1048 partner limits assumed): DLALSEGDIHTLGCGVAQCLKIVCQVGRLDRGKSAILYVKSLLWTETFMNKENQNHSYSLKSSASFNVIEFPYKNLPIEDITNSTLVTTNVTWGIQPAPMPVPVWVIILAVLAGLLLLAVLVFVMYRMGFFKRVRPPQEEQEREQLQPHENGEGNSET
Sequence (P26012 43-769): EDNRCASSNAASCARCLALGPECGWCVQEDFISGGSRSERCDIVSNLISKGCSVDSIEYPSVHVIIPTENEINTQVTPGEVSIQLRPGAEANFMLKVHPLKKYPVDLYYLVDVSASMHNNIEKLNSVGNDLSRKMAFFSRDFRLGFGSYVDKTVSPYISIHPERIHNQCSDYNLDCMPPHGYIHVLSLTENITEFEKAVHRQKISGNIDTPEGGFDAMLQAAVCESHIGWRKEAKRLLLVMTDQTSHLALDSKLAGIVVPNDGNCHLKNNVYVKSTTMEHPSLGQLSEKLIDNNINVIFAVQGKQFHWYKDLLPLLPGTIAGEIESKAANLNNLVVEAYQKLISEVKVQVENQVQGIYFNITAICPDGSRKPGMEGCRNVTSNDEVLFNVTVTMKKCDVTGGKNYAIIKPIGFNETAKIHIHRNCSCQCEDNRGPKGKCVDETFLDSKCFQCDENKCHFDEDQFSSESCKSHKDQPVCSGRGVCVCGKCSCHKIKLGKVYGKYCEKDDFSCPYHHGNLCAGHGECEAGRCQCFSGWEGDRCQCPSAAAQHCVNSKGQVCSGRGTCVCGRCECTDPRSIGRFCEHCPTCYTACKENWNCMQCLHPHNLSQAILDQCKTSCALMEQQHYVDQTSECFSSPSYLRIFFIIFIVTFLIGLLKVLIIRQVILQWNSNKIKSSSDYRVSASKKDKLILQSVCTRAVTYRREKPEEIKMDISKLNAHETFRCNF
Assay: Cell Adhesion Assay αvβ8
Assay type: cell-based
Conditions: K562-αvβ8 cells, ligand LAP-b1, 2 mM MgCl2; read-out: mean affinity (pIC50) αvβ8 (converted)
Quantity name: IC50 (nM)

Check out these entries, answers already filled in.
COCCOc1cc(OCCOC)cc([C@H](CC(=O)O)CN2CC[C@@H](CCc3ccc4c(n3)NCCC4)C2)c1 [Example 8] ... 20
CC(C)OCCOc1cccc([C@H](CC(=O)O)CN2CC[C@@H](CCc3ccc4c(n3)NCCC4)C2)c1 [Example 13] ... 20
O=C(O)C[C@H](CN1CC[C@@H](CCc2ccc3c(n2)NCCC3)C1)c1cccc(OC[C@@H]2CCCO2)c1 [Example 15] ... 39.8
O=C(O)C[C@H](CN1CC[C@@H](CCc2ccc3c(n2)NCCC3)C1)c1cccc(OC[C@H]2CCCO2)c1 [Example 14] ... 20
COCCOc1cc(OCCF)cc(C(CC(=O)O)CN2CC[C@@H](CCc3ccc4c(n3)NCCC4)C2)c1 (stereo partly shown) [Example 18] ... 25.1

(a) COCCCOc1cccc(C(CC(=O)O)CN2CC[C@@H](CCc3ccc4c(n3)NCCC4)C2)c1 (stereo partly shown) [Example 19]
(b) O=C(O)CC(CN1CC[C@@H](CCc2ccc3c(n2)NCCC3)C1)c1cccc(OCC2COC2)c1 (stereo partly shown) [Example 20]
Which one would you say has the larger IC50 value: a , or b ? Your answer should be the label of the entry you select.
b
(b: 20 nM, a: 12.6 nM)

* * *

Biological target: αvβ3 (Homo sapiens, UniProt P05106+P06756)
Construct: expressed in transfected cells; host or cells: K562-αvβ3
Sequence (P05106 27-788, one chain of several): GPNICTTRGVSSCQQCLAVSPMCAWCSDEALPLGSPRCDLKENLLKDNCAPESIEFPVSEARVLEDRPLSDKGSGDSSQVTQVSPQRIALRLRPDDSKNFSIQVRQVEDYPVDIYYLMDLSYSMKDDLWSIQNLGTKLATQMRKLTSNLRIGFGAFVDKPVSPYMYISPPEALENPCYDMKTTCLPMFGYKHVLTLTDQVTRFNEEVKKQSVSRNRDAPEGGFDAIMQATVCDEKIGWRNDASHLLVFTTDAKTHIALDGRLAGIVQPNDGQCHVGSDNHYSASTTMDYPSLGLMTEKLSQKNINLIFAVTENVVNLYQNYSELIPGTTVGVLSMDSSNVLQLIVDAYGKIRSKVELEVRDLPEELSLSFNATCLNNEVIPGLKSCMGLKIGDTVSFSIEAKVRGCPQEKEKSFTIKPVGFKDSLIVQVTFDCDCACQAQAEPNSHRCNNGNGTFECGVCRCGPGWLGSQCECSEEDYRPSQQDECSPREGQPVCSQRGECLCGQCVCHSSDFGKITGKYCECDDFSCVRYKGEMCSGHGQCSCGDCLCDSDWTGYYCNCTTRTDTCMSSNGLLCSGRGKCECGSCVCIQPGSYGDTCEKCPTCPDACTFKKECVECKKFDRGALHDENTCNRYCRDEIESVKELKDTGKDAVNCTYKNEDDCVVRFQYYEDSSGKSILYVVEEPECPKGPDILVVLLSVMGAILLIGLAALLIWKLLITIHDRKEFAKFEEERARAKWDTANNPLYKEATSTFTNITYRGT
Assay: Cell Adhesion Assay αvβ3
Type: cell-based
Details: K562-αvβ3 cells, ligand LAP-b1, 2 mM MgCl2; read-out: mean affinity (pIC50) αvβ3 (converted)
Quantity name: IC50 (nM)

Check out these entries, answers already filled in.
COCCOc1cc(OCCOC)cc([C@H](CC(=O)O)CN2CC[C@@H](CCc3ccc4c(n3)NCCC4)C2)c1 ... 126
COCC(C)(C)Oc1cccc([C@H](CC(=O)O)CN2CC[C@@H](CCc3ccc4c(n3)NCCC4)C2)c1 ... 316

(1) O=C(O)CC(CN1CC[C@@H](CCc2ccc3c(n2)NCCC3)C1)c1cccc(OCC2COC2)c1 (stereo partly shown)
(2) COC[C@H](C)Oc1cccc(C(CC(=O)O)CN2CC[C@@H](CCc3ccc4c(n3)NCCC4)C2)c1 (single isomer, unassigned)
Which one would you say has the larger IC50 value: 1 , or 2 ? Your answer should be the label of the entry you select.
2
(2: 3160 nM, 1: 398 nM)

* * *

Molecular target: αvβ5 (Homo sapiens, UniProt P06756+P18084)
Construct: expressed in transfected cells; host or cells: K562-αvβ5
Sequence (P06756 31-889 limits assumed): as the sequence (P06756 31-889 limits assumed) above
Sequence (P06756 891-1048 partner limits assumed): as the sequence (P06756 891-1048 partner limits assumed) above
Sequence (P18084 24-799): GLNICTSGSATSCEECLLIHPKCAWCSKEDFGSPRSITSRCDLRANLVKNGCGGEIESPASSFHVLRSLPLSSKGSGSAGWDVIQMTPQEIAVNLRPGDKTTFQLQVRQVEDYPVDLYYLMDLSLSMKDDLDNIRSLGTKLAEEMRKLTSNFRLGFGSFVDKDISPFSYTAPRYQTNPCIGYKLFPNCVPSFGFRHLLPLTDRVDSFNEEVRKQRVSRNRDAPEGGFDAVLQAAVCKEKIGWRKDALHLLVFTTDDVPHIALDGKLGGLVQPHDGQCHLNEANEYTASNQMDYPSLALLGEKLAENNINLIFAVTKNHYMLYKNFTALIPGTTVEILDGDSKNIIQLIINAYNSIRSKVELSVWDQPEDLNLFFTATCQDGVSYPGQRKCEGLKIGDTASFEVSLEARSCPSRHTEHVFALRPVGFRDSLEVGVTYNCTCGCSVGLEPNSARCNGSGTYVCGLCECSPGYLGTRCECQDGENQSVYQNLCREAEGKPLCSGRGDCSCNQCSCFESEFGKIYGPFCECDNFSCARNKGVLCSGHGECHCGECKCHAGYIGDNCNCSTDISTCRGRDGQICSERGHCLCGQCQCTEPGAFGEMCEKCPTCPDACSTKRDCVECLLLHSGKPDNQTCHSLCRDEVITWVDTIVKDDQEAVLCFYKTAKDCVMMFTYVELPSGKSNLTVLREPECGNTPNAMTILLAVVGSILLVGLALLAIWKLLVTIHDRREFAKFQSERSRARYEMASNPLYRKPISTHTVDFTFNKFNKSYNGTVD
Assay: Cell Adhesion Assay αvβ5
Format: cell-based
Conditions: K562-αvβ5 cells, ligand Vitronectin, 2 mM MgCl2; read-out: mean affinity (pIC50) αvβ5 (converted)
Quantity name: IC50 (nM)

(a) O=C(O)C[C@H](CN1CC[C@@H](CCc2ccc3c(n2)NCCC3)C1)c1cccc(OC[C@@H]2CCCO2)c1
(b) COCCCOc1cccc(C(CC(=O)O)CN2CC[C@@H](CCc3ccc4c(n3)NCCC4)C2)c1 (stereo partly drawn)
(c) CO[C@H](C)COc1cccc([C@H](CC(=O)O)CN2CC[C@@H](CCc3ccc4c(n3)NCCC4)C2)c1
I'd appreciate it if you could rank the molecules mentioned above by IC50, largest value first. Please, when replying, give the labels in the order that was requested.
b, a, c
(b: 63.1 nM, a: 39.8 nM, c: 15.8 nM)
